experiment: Cytotoxicity against Chlorocebus aethiops (African green monkey) Vero cells assessed as concentration required for 50% loss of monolayer around viral plaque after 66 hr; format: cell-based; conditions: chlorocebus sabaeus, read-out: Activity
CC50 at 66 h: recorded values
Enter your answer as a number in µg/mL; do not include the unit.

Study these solved cases before continuing.
O=C(NN1C(=O)c2ccccc2C1=O)c1cc(-c2ccc(Cl)cc2)on1
10
O=C(NNC(=S)Nc1ccccc1)c1cc(-c2ccc(Cl)cc2)on1
20

Q. // query CC50 at 66 h value for entry `O=C(N/N=c1\scc(-c2ccc(Cl)cc2)n1-c1ccccc1)c1cc(-c2ccc(Cl)cc2)on1`
A. 20

Q. Returns the measured CC50 at 66 h for the input molecule. Input: `CC(=N/NC(=O)c1cc(-c2ccc(Cl)cc2)n(-c2ccccc2)n1)/C(Cl)=N\Nc1ccc(F)cc1`
A. 20

###

experiment: Cytotoxicity against Chlorocebus aethiops (African green monkey) Vero cells assessed as concentration required for 50% loss of monolayer around viral plaque after 66 hr; format: cell-based; details: chlorocebus sabaeus, read-out: Activity
Recorded measurements of CC50 at 66 h, one per entry
Give just the number in µg/mL; leave the unit off.

Example entries begin here.
NNC(=O)c1cc(-c2ccc(Cl)cc2)n(-c2ccccc2)n1
20
O=C(N/N=C1/S/C(=C\c2ccc(F)cc2)C(=O)N1c1ccccc1)c1cc(-c2ccc(Cl)cc2)n(-c2ccccc2)n1
30
Clc1ccc(-c2cc(-c3nnc(Nc4ccccc4)s3)nn2-c2ccccc2)cc1
30
O=C(N/N=C/c1ccc(F)cc1)c1cc(-c2ccc(Cl)cc2)n(-c2ccccc2)n1
20
C[C@@]1(CO)[C@H](O)CC[C@@]2(C)[C@H]1CC[C@H]1C[C@@H]3C[C@@]12CC[C@]3(O)CO
10

Q. Please report the recorded CC50 at 66 h for `O=C(N/N=C1/S/C(=C\c2ccc(F)cc2)C(=O)N1c1ccccc1)c1cc(-c2ccc(Cl)cc2)on1` .
A. 20

Q. What value of CC50 at 66 h has been recorded for this entry: `O=C(N/N=c1\scc(-c2ccc(Cl)cc2)n1-c1ccccc1)c1cc(-c2ccc(Cl)cc2)n(-c2ccccc2)n1`
A. 20

Q. Query: CC50 at 66 h; subject: `CC1=NN(C(=O)c2cc(-c3ccc(Cl)cc3)n(-c3ccccc3)n2)C(=O)/C1=N/Nc1ccc(F)cc1`
A. 20

###

assay: Cytotoxicity against Chlorocebus aethiops (African green monkey) Vero cells assessed as concentration required for 50% loss of monolayer around viral plaque after 66 hr; type: cell-based; details: chlorocebus sabaeus, read-out: Activity
recorded-endpoint: CC50 at 66 h

Recorded results for 5 molecules are shown here.
CC(=N/NC(=O)c1cc(-c2ccc(Cl)cc2)on1)/C(Cl)=N\Nc1ccc(F)cc1
20 µg/mL
CC1=NN(C(=O)c2cc(-c3ccc(Cl)cc3)on2)C(=O)/C1=N/Nc1ccc(F)cc1
20 µg/mL
O=C(N/N=C/c1ccc(F)cc1)c1cc(-c2ccc(Cl)cc2)on1
10 µg/mL
NNC(=O)c1cc(-c2ccc(Cl)cc2)on1
10 µg/mL
Clc1ccc(-c2cc(-c3nnc(Nc4ccccc4)s3)no2)cc1
20 µg/mL

Note: attention shifts to another entry.
Q. Entry `O=C(NNC(=S)Nc1ccccc1)c1cc(-c2ccc(Cl)cc2)n(-c2ccccc2)n1` has what CC50 at 66 h?
A. 20 µg/mL
